System: TK-10 renal
Assay: NCI tumour cell line growth inhibition, 48 h

- compound: "COc1ccc(C2Oc3c(cc(O)c(OC)c3C)[C@@H]2C)cc1OC (stereo not given in full)"
  TGI: "> 100 µM"
- compound: "CCOC(=O)NC(=O)c1cn(C2OC(COC(=O)CCCCCCCCC(=O)OCC3OC(n4cc(C(=O)NC(=O)OCC)c(=O)[nH]c4=O)C(O)C3O)C(O)C2O)c(=O)[nH]c1=O (stereo not given)"
  TGI: "> 100 µM"
- compound: "CCOC(=O)c1csc(NC(=O)CCN(CC)CC)n1"
  TGI: "62.8 µM"
- compound: "COc1ccc(C(C#N)NNC(=O)c2ccccc2O)cc1OC (stereo not given)"
  TGI: "> 100 µM"
- compound: "O=C(CN1CCOCC1)Nc1ccc(Cn2nnc3c2C(=O)c2nnn(Cc4ccc(NC(=O)CN5CCOCC5)cc4)c2C3=O)cc1"
  TGI: "24.4 µM"

---

Consider the following molecules and their measured GI50 readings.
Test system: SK-MEL-2 melanoma
Assay: NCI tumour cell line growth inhibition, 48 h

- molecule: "O=C1/C(=C/c2ccc(Cl)cc2Cl)N=C(c2ccccc2)N1Cc1ccco1"
  GI50: "15.8 µM"
- molecule: "O=C1c2c(c3c4ccccc4n(CCCCCCBr)c3c3[nH]c4ccccc4c23)C(=O)N1O"
  GI50: "2.09 µM"
- molecule: "COc1ccc(C2=NN(C(=O)c3cc(OC)c(OC)c(OC)c3)C(c3ccc(C#N)cc3)C2)cc1OC (stereo not drawn)"
  GI50: "1.58 µM"
- molecule: "COc1ccc2[nH]c(O)c(/C=c3/cc4c(c(-c5cc(OC)c(OC)c(OC)c5)n3)=Nc3ccccc3-4)c2c1"
  GI50: "15.9 µM"
- molecule: "O=[N+]([O-])/C=C\\c1ccc(Cl)c(Cl)c1"
  GI50: "2.56 µM"
- molecule: "O=C(c1ccco1)c1nc2ccc(C(F)(F)F)cc2[n+]([O-])c1C(F)(F)F"
  GI50: "87.7 µM"
- molecule: "CCCCC(=O)OCC1OC(n2cnc3c(=S)nc[nH]c32)C(OC(=O)CCCC)C1OC(=O)CCCC (stereo not drawn)"
  GI50: "1.61 µM"
- molecule: "O=C(Nc1ccc(N2CCNCC2)cc1)c1[nH]ncc1Nc1cc(Oc2ccccc2)ncn1"
  GI50: "3.82 µM"
- molecule: "Cc1ccc(-c2c3c([nH]c(=O)c2C#N)-c2cc(F)ccc2OC3)cc1"
  GI50: "55.4 µM"
- molecule: "C[C@]12CC[C@H](O)CC1=CC[C@@H]1[C@@H]2CC[C@]2(C)C(c3cccnc3)=CC[C@@H]12"
  GI50: "34.5 µM"
- molecule: "COc1cc(OC)cc(-c2ccc(-c3ccc(C(=N)N)o3)o2)c1"
  GI50: "2.44 µM"
- molecule: "O=C1OCc2c1cc1ccc(O)c(OC3OC(CO)C(O)C(O)C3O)c1c2-c1ccc2c(c1)OCO2 (stereo not drawn)"
  GI50: "33.5 µM"
- molecule: "Cc1ccc(CS/C(=C\\c2ccc([N+](=O)[O-])cc2)C(=O)c2ccc(F)cc2)cc1"
  GI50: "15.3 µM"

---

// TGI lookup, one value per entry
Test system: SF-295 CNS
Test: NCI tumour cell line growth inhibition, 48 h
experimental readout: TGI

- compound: "S=C(N/N=C\\C=N/NC(=S)N1CCCCC1)N1CCCCC1"
  experimental readout: "TGI"
  result: "> 77.8 µM"
- compound: "CC12CC[C@@H](C(C)(C)O)C1[C@@H](O)CC1(C)C2CCC2[C@@]3(C)CC[C@H](O)C(C)(C)C3C(O)C[C@]21C (some centres not stated)"
  experimental readout: "TGI"
  result: "37 µM"
- compound: "CCCCN1C(=O)CC2[C@@H]3CCc4cc(OC(C)=O)ccc4C3CC[C@]2(C)C1=O (some centres not stated)"
  experimental readout: "TGI"
  result: "> 10 µM"
- compound: "COc1cccc2c(N)c3cccc(C(=O)NCCN(C)C)c3nc12"
  experimental readout: "TGI"
  result: "2.01 µM"
- compound: "CN(C)/N=N/c1nc2c(c(=O)n(C)c(=O)n2C)n1C"
  experimental readout: "TGI"
  result: "> 100 µM"
- compound: "C=C1CC(COc2cc(=O)oc3ccccc23)(c2ccccc2)OC1=O (configuration not stated)"
  experimental readout: "TGI"
  result: "22.7 µM"
- compound: "OCCC1(O)CCC(O)CC1 (configuration not stated)"
  experimental readout: "TGI"
  result: "> 100 µM"
- compound: "COC(=O)C1C(C(=O)OC)N(Cc2ccccc2)C(=O)N1Cc1ccccc1 (configuration not stated)"
  experimental readout: "TGI"
  result: "> 100 µM"
- compound: "CC(CN1c2ccccc2Sc2ccccc21)N(C)C (configuration not stated)"
  experimental readout: "TGI"
  result: "28.9 µM"
- compound: "Cn1c(N2NC(=O)C(N=Nc3ccc(S(N)(=O)=O)cc3)C2=O)nc(-c2ccco2)c(C#N)c1=O (configuration not stated)"
  experimental readout: "TGI"
  result: "> 50 µM"
- compound: "COc1ccc2ccc3c(c2c1)CN1CCc2cc(OC)c(OC)cc2C1C3 (configuration not stated)"
  experimental readout: "TGI"
  result: "> 100 µM"
- compound: "CCOC(=O)/C=C(/C(=O)OCC)n1cc(Cl)c(=O)n(CC(=O)OCC)c1=O"
  experimental readout: "TGI"
  result: "> 100 µM"
- compound: "COCOC1/C=C/CCCCC2=C(C)C=C(C1)O2 (configuration not stated)"
  experimental readout: "TGI"
  result: "> 100 µM"
- compound: "Cc1cc(N(CCOS(C)(=O)=O)CCOS(C)(=O)=O)ccc1C=Nc1ccc(-c2nc(Cc3ccccc3)sc2C)cc1"
  experimental readout: "TGI"
  result: "32.4 µM"
- compound: "NCC1CCN(c2nc3ccccc3c3c2CCCC3)CC1"
  experimental readout: "TGI"
  result: "26.7 µM"
- compound: "CCCCCCCCCCCCCC(=O)OC1CC(=O)OC1CO (configuration not stated)"
  experimental readout: "TGI"
  result: "45.5 µM"
- compound: "Cn1cc2ccccc2c1-c1nc(N)nc(F)n1"
  experimental readout: "TGI"
  result: "> 100 µM"
- compound: "Cc1c(C(=O)N/N=C/c2ccc(Cl)cc2)nnn1-c1ccnc2c(C(F)(F)F)cccc12"
  experimental readout: "TGI"
  result: "4.01 µM"
- compound: "C=C(C(=O)C(=O)Oc1ccc(Cl)cc1)C(=O)c1ccc(C)cc1"
  experimental readout: "TGI"
  result: "> 100 µM"
- compound: "Cc1cc(N(CCC#N)CCC#N)ccc1/C=N/NC(=O)c1cc(Cl)ccc1O"
  experimental readout: "TGI"
  result: "> 100 µM"
- compound: "COC1C(CN[N+](=O)CC2OC3OC(C)(C)OC3C2OC)OC2OC(C)(C)OC21 (configuration not stated)"
  experimental readout: "TGI"
  result: "> 100 µM"
- compound: "c1ccc(C2C3=C(Nc4ncnn42)c2ccccc2C3)cc1 (configuration not stated)"
  experimental readout: "TGI"
  result: "> 100 µM"
